Assay: Toxicity liver stage against HepG2, at 10uM
Type: cell-based
Set-up: test concentration 10 uM, cell line HepG2-A16-CD81EGFP
Conditions: human, HepG2-A16-CD81EGFP cells; read-out: INHIBITION
Readout: cytotoxicity at 10 µM (%)

INSERT INTO results (molecule, readout_number) VALUES
  ('O=C(N1CCOCC1CO)C1(c2cccs2)CCCC1 (stereo not given)', 0.161),
  ('Cc1noc(CN(C)CC(c2cccs2)N2CCOCC2)n1 (stereo not given)', -0.524),
  ('CCn1c(CN(C)C)nnc1C1CCN(Cc2cnc(C)nc2)CC1', 4.6),
  ('O=C(Cc1ccc2c(c1)OCCO2)NC1CCN(CC(F)F)CC1', -9.86),
  ('COc1cccc(OCC2CCCN(C(=O)c3cc(C)n[nH]3)C2)c1 (stereo not given)', -3.42),
  ('Cc1cc(NC(=O)N2CCN(C)CC2C)n(CCC#N)n1 (stereo not given)', 2.35),
  ('CN(Cc1nncn1C)C(=O)c1cc(COc2ccccc2)[nH]n1', 9.23),
  ('O=C(NC[C@@H]1CCCN1)c1cc(COc2cccc(C(F)(F)F)c2)[nH]n1', -8.31),
  ('COCCc1noc(-c2ccc(=O)[nH]c2)n1', -3.61),
  ('Cn1cc(-c2cnc(-c3ccnn3C)nc2)cc1C(=O)N1CCCC1', 4.55);

====

Assay: Toxicity liver stage against HepG2, at 10uM
Type: cell-based
Design: test concentration 10 uM, cell line HepG2-A16-CD81EGFP
Settings: human, HepG2-A16-CD81EGFP cells; read-out: INHIBITION
Readout: cytotoxicity at 10 µM (%)

INSERT INTO assay_data (compound, quantity_unit, readout_number) VALUES
  ('COc1cc(OC)c(C2CC(=O)Oc3cc(C)[nH]c(=O)c32)cc1OC (configuration not stated)', '%', -4.81),
  ('COC(=O)c1ccc2ccn(CC3CCCN(C)C3)c(=O)c2c1 (configuration not stated)', '%', -16.1),
  ('Cn1nc(COCC2CC2)c2c1CCN(Cc1ccco1)C2', '%', -1.77),
  ('CC(=O)N(C)C1CCC2(CC1)CNC(=O)c1cc(C)ccc1O2 (configuration not stated)', '%', -35.4),
  ('CN(C)c1cc2c(nn1)CCN(C(=O)Cc1noc3ccccc13)C2', '%', -10.7),
  ('CC(C)(C#N)CCCS(=O)(=O)c1nccn1-c1cccc(F)c1', '%', -1.12),
  ('CN(C)[C@@H]1CN(Cc2ccccn2)C[C@H]1c1cn(C)c2ccccc12', '%', -0.73),
  ('CCOc1ncccc1NC(=O)N1CCCN(C(=O)OC)CC1', '%', -9.86),
  ('CC(=O)N1CC[C@H]2N(C)CC[C@@]2(C(=O)Nc2cccnc2)CC1', '%', -111),
  ('CN1CCN(CC[C@@H]2CC[C@H](O)[C@@H](C(=O)Nc3ccccc3)O2)CC1', '%', -7.1),
  ('Cn1cnc(S(=O)(=O)N2CC3(CCN(c4ccccc4)C3)C2)c1', '%', -91.7),
  ('CCn1cc(NS(=O)(=O)c2ccc(Br)s2)c(C(N)=O)n1', '%', 2.3),
  ('Cc1nc(CC(=O)N2CCOC(c3nc(C(C)(C)C)n[nH]3)C2)cs1 (configuration not stated)', '%', 4.06),
  ('Cc1cc(NC(=O)C(C)Nc2cccc(COCc3ccco3)c2)on1 (configuration not stated)', '%', -2.41),
  ('CC(C)c1ccc(O)c(C(=O)N2CCN(Cc3cscn3)CC2)c1', '%', -3.24),
  ('CC(C)c1noc(CCC(=O)NCC2CC2)n1', '%', -28.7),
  ('O=C(Nc1ccccn1)NC(CCCO)c1ccccc1 (configuration not stated)', '%', 3.72);
